Assay: Pharmacokinetic study in canine
Type: in vivo, Beagle dogs
Conditions: male, plasma; Beagle dog, IV, 1 mg/kg
Tmax for assorted molecules
valueType: Tmax

[[record]]
molecule = "CN(C(=O)C1CC1)c1cnc(NCc2c(F)ccc3c2CCO3)n2cnnc12 [HJM-045]"
valuetype = "Tmax"
result = "4.8 min"

[[record]]
molecule = "Fc1ccc2c(c1CNc1ncc(OC3CCOCC3)c3nncn13)CCO2 [HJM-016]"
valuetype = "Tmax"
result = "4.8 min"

[[record]]
molecule = "Fc1ccc2c(c1CNc1ncc(OCC3COC3)c3nncn13)CCO2 [HJM-104]"
valuetype = "Tmax"
result = "4.8 min"


====

Assay: Pharmacokinetic study in canine
Type: in vivo, Beagle dogs
Conditions: male, plasma; Beagle dog, IV, 1 mg/kg
valueType: clearance (mL/min/kg)

[[record]]
molecule = "Fc1ccc2c(c1CNc1ncc(OC3CCOCC3)c3nncn13)CCO2 [HJM-016]"
endpointunit = "mL/min/kg"
measurednumber = 1.92

[[record]]
molecule = "Fc1ccc2c(c1CNc1ncc(OCC3COC3)c3nncn13)CCO2 [HJM-104]"
endpointunit = "mL/min/kg"
measurednumber = 5.9

[[record]]
molecule = "CN(C(=O)C1CC1)c1cnc(NCc2c(F)ccc3c2CCO3)n2cnnc12 [HJM-045]"
endpointunit = "mL/min/kg"
measurednumber = 3.7


====

Experiment: Pharmacokinetic study in rats
Format: in vivo, SD rats
Conditions: male, SD, plasma; rat, IV, 1 mg/kg
clearance for assorted compounds
valueType: clearance (mL/min/kg)

[[record]]
compound = "Fc1ccc2c(c1CNc1ncc(OCC3COC3)c3nncn13)CCO2"
measurednumber = 8.47

[[record]]
compound = "Fc1ccc2c(c1CNc1ncc(OCC3CCOC3)c3nncn13)CCO2 (centres unmarked)"
measurednumber = 14.8

[[record]]
compound = "CN(C(=O)C1CC1)c1cnc(NCc2c(F)ccc3c2CCO3)n2cnnc12"
measurednumber = 26.4

[[record]]
compound = "Fc1ccc2c(c1CNc1ncc(OC3CCOCC3)c3nncn13)CCO2"
measurednumber = 8.24

[[record]]
compound = "O=C(Nc1cnc(NCc2c(F)ccc3c2CCO3)n2cnnc12)C1CC1"
measurednumber = 13.6

[[record]]
compound = "CC1(COc2cnc(NCc3c(F)ccc4c3CCO4)n3cnnc23)COC1"
measurednumber = 8.83

[[record]]
compound = "O=C1CCCN1c1cnc(NCc2c(F)ccc3c2CCO3)n2cnnc12"
measurednumber = 24.1

[[record]]
compound = "CCN(C(=O)C1CC1)c1cnc(NCc2c(F)ccc3c2CCO3)n2cnnc12"
measurednumber = 19.5


====

Assay: Pharmacokinetic study in rats
Assay type: in vivo, SD rats
Settings: male, SD, plasma; rat, PO, 2 mg/kg
Quick rule for you: Tmax at 2 h or higher means criterion met, lower means criterion not met.

[[record]]
molecule = "CCN(C(=O)C1CC1)c1cnc(NCc2c(F)ccc3c2CCO3)n2cnnc12"
group = "criterion not met"

[[record]]
molecule = "Fc1ccc2c(c1CNc1ncc(OCC3CCOC3)c3nncn13)CCO2 (centres unmarked)"
group = "criterion not met"

[[record]]
molecule = "CC1(COc2cnc(NCc3c(F)ccc4c3CCO4)n3cnnc23)COC1"
group = "criterion met"

[[record]]
molecule = "Fc1ccc2c(c1CNc1ncc(OC3CCOCC3)c3nncn13)CCO2"
group = "criterion met"

[[record]]
molecule = "Fc1ccc2c(c1CNc1ncc(OCC3COC3)c3nncn13)CCO2"
group = "criterion met"


====

Test: Pharmacokinetic study in canine
Format: in vivo, Beagle dogs
Settings: male, plasma; Beagle dog, PO, 5 mg/kg
Tmax for assorted compounds
valueType: Tmax (h)

[[record]]
recordsmiles = "Fc1ccc2c(c1CNc1ncc(OC3CCOCC3)c3nncn13)CCO2"
valuetype = "Tmax"
measurednumber = 2

[[record]]
recordsmiles = "Fc1ccc2c(c1CNc1ncc(OCC3COC3)c3nncn13)CCO2"
valuetype = "Tmax"
measurednumber = 1

[[record]]
recordsmiles = "CN(C(=O)C1CC1)c1cnc(NCc2c(F)ccc3c2CCO3)n2cnnc12"
valuetype = "Tmax"
measurednumber = 0.5


====

Test: Pharmacokinetic study in rats
Format: in vivo, SD rats
Conditions: male, SD, plasma; rat, PO, 2 mg/kg
Procedure: Six SPF SD rats, male, weighing 180-220 g, were randomly divided into 2 groups with 3 rats in each group. […] The oral administration group was fasted overnight (10-14 h) before the assay, and drank water freely. […] They were weighed before administration, and the dosage was calculated according to the body weight. […] The concentration of each compound in rat plasma was determined by LC/MS/MS method. […]
valueType: half-life (h)

[[record]]
compound = "O=C1CCCN1c1cnc(NCc2c(F)ccc3c2CCO3)n2cnnc12"
valuetype = "half-life"
measurednumber = 3.03

[[record]]
compound = "Fc1ccc2c(c1CNc1ncc(OCC3COC3)c3nncn13)CCO2"
valuetype = "half-life"
measurednumber = 2.21

[[record]]
compound = "Fc1ccc2c(c1CNc1ncc(OCC3CCOC3)c3nncn13)CCO2 (centres unmarked)"
valuetype = "half-life"
measurednumber = 1.68

[[record]]
compound = "CC1(COc2cnc(NCc3c(F)ccc4c3CCO4)n3cnnc23)COC1"
valuetype = "half-life"
measurednumber = 1.41

[[record]]
compound = "CCN(C(=O)C1CC1)c1cnc(NCc2c(F)ccc3c2CCO3)n2cnnc12"
valuetype = "half-life"
measurednumber = 1.72


====

Experiment: Pharmacokinetic study in rats
Type: in vivo, SD rats
Conditions: male, SD, plasma; rat, PO, 2 mg/kg
valueType: AUC(0-inf) (ng·h/mL)

[[record]]
compound = "Fc1ccc2c(c1CNc1ncc(OC3CCOCC3)c3nncn13)CCO2 [HJM-016]"
valuetype = "AUC(0-inf)"
measurednumber = 3900

[[record]]
compound = "Fc1ccc2c(c1CNc1ncc(OCC3COC3)c3nncn13)CCO2 [HJM-104]"
valuetype = "AUC(0-inf)"
measurednumber = 3470

[[record]]
compound = "O=C(Nc1cnc(NCc2c(F)ccc3c2CCO3)n2cnnc12)C1CC1 [HJM-030]"
valuetype = "AUC(0-inf)"
measurednumber = 1450

[[record]]
compound = "Fc1ccc2c(c1CNc1ncc(OCC3CCOC3)c3nncn13)CCO2 (centres unmarked) [HJM-102]"
valuetype = "AUC(0-inf)"
measurednumber = 1890

[[record]]
compound = "O=C1CCCN1c1cnc(NCc2c(F)ccc3c2CCO3)n2cnnc12 [HJM-067]"
valuetype = "AUC(0-inf)"
measurednumber = 846


====

Test: Pharmacokinetic study in rats
Format: in vivo, SD rats
Settings: male, SD, plasma; rat, PO, 2 mg/kg
half-life for assorted compounds
valueType: half-life (h)

[[record]]
recordsmiles = "Fc1ccc2c(c1CNc1ncc(OC3CCOCC3)c3nncn13)CCO2"
endpointunit = "h"
measurednumber = 2.8

[[record]]
recordsmiles = "CN(C(=O)C1CC1)c1cnc(NCc2c(F)ccc3c2CCO3)n2cnnc12"
endpointunit = "h"
measurednumber = 1.46

[[record]]
recordsmiles = "O=C(Nc1cnc(NCc2c(F)ccc3c2CCO3)n2cnnc12)C1CC1"
endpointunit = "h"
measurednumber = 1.32


====

Test: Pharmacokinetic study in rats
Type: in vivo, SD rats
Details: male, SD, plasma; rat, IV, 1 mg/kg
AUC(0-inf) for assorted compounds
valueType: AUC(0-inf) (ng·h/mL)

[[record]]
compound = "Fc1ccc2c(c1CNc1ncc(OCC3CCOC3)c3nncn13)CCO2 (centres unmarked) [HJM-102]"
valuetype = "AUC(0-inf)"
endpointunit = "ng·h/mL"
measurednumber = 1140

[[record]]
compound = "CN(C(=O)C1CC1)c1cnc(NCc2c(F)ccc3c2CCO3)n2cnnc12 [HJM-045]"
valuetype = "AUC(0-inf)"
endpointunit = "ng·h/mL"
measurednumber = 639

[[record]]
compound = "CC1(COc2cnc(NCc3c(F)ccc4c3CCO4)n3cnnc23)COC1 [HJM-105]"
valuetype = "AUC(0-inf)"
endpointunit = "ng·h/mL"
measurednumber = 1910

[[record]]
compound = "Fc1ccc2c(c1CNc1ncc(OCC3COC3)c3nncn13)CCO2 [HJM-104]"
valuetype = "AUC(0-inf)"
endpointunit = "ng·h/mL"
measurednumber = 1980

[[record]]
compound = "O=C1CCCN1c1cnc(NCc2c(F)ccc3c2CCO3)n2cnnc12 [HJM-067]"
valuetype = "AUC(0-inf)"
endpointunit = "ng·h/mL"
measurednumber = 695


====

Assay: Pharmacokinetic study in rats
Assay type: in vivo, SD rats
Settings: male, SD, plasma; rat, PO, 2 mg/kg; read-out: MRT0-∞
Doc: threshold 3 h (exclusive). Items with MRT inf beneath it return 1; others return 0.

[[record]]
molecule = "CC1(COc2cnc(NCc3c(F)ccc4c3CCO4)n3cnnc23)COC1"
group = 0

[[record]]
molecule = "O=C1CCCN1c1cnc(NCc2c(F)ccc3c2CCO3)n2cnnc12"
group = 1

[[record]]
molecule = "Fc1ccc2c(c1CNc1ncc(OCC3CCOC3)c3nncn13)CCO2 (centres unmarked)"
group = 0

[[record]]
molecule = "Fc1ccc2c(c1CNc1ncc(OC3CCOCC3)c3nncn13)CCO2"
group = 0

[[record]]
molecule = "Fc1ccc2c(c1CNc1ncc(OCC3COC3)c3nncn13)CCO2"
group = 0

[[record]]
molecule = "CN(C(=O)C1CC1)c1cnc(NCc2c(F)ccc3c2CCO3)n2cnnc12"
group = 0


# credit: patent US12552796B2
